All figures here come from patent US12590147.

Recorded IC50 of inhibition of TRPV1-mediated capsaicin-induced Ca2+ uptake (FLIPR) by entry
Biological target: human TRPV1 (transient receptor potential vanilloid type 1) (human, UniProt Q8NER1 1-839)
Sequence (Q8NER1 whole entry): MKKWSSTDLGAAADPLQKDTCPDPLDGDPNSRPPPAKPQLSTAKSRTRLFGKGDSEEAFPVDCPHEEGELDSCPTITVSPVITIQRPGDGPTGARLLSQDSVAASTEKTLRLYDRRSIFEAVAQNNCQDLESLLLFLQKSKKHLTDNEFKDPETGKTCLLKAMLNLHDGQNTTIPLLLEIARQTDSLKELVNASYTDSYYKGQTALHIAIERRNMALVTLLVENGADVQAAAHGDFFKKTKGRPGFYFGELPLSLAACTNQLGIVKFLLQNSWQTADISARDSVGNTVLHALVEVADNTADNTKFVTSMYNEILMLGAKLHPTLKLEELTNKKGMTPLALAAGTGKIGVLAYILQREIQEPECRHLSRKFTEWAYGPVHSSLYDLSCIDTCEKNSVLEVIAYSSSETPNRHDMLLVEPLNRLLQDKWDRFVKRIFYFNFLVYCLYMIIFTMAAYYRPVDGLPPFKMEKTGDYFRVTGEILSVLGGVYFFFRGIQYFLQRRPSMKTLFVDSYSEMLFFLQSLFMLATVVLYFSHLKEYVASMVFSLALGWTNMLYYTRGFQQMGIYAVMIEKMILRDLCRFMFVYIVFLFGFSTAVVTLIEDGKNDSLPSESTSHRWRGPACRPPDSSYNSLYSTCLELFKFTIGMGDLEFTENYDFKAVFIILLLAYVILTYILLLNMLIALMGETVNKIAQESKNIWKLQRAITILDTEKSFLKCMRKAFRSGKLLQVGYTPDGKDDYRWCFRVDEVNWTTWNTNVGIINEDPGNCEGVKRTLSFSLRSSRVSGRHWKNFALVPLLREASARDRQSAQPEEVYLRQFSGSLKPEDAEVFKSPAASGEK
Experiment: cell-based or functional assay

// known answers, use as guide
[[record]]
binder = "41B5-1 (antibody, V domains shown) VH: DVQLQESGPGLVKPSQSLSLTCTVTDYSLTSDYAWNWIRQFPGNKLEWMGYITYSGYTNFNPSLRSRISITRDTSKTQFFLQLNSVTAEDTATYYCVRSTTYFDYWGQGTTLTVSS VL: DVLMTQTPLSLPVSLGDQASISCRSSQSIVHSDGNTYLEWYLQKPGQSPKLLIYKVSNRFSGVPDRFSGSGSGTDFTLKINRVEAEDLGIYYCFQGSHVPPTFGGGTKLEIK"
assay_result = "~170 nM"

[[record]]
binder = "15D8-1 (antibody, V domains shown) VH: DVQLVESGGGLVQPGGSRKLSCAASGFTFSSFGMHWVRQAPEKGLEWVAYISSGSSTIYYADTVKGRFTISRDNPKNTLFLQMTSLRSEDTAMYYCARRGNAMDYWGQGTSVTVSS VL: NIMMTQSPSSLAVSAGEKVTMSCKSSQSVLYSSNQKNYLAWYQQKPGQSPKLLIYWASTRESGVPDRFTGSGSGTDFTLTISSVQAEDLAVYYCHQYFSSWTFGGGTKLEIK"
assay_result = "~70 nM"

[[record]]
binder = "17E9-1 (antibody, IgG2b, V domains shown) VH: EVQLLQSVAELVRPGASVKLSCTASGFNIKNTFIHWLKQRPEQGLEWIGKIDPANGNIRCAPKFQGKATITADTSSNTAYLQLSSLTSGDTAIYYCGRGTMLVGHFYWYFDVWGTGTTVTVSS VL: DIVMSQSPSSLAVSVGEKITMSCKSSQSLLYSSNQKNYLAWYQQKPGQSPKLLIYWASTRESGVPDRFSGSGSGTDFTLTISSVKTEDLAIFYCQQYYYYPPTFGAGTKLELR"
assay_result = "~400 nM"


Continue with the binder presented below.
Report IC50 of inhibition of TRPV1-mediated capsaicin-induced Ca2+ uptake (FLIPR) for 46B7-1 (antibody, V domains shown) VH: DVQLQESGPGLVKPSQSLSLTCTVTDYSLTSDYAWNWIRQFPGNKLEWMGYITYSGYTNYNPSLKSRVSITRDTSKTQFFLQLNSVTTEDTATYYCARSTAYFDYWGQGTTLTVSS VL: DVLMTQTPLSLPVSLGDQASISCRSSQSVIHSDGNTYLEWYLQKPGQSPKLLIYKVSNRFSGVPDRFSGSGSGTDFTLKISRVEAEDLGVYYCFQGSHVPPTFGGGTKLEIK please.
~200 nM
